- System: HS-Sch-2
- assay.summary: relative IC50 (inflection point of fitted dose-response curve, CellTiter-Glo viability, 72 h; top asymptote may be below 50% inhibition); higher = less potent
measurement.name: relative IC50

Task: Give its relative IC50 value. Item: CN(C)/N=N/c1[nH]cnc1C(N)=O
Output: > 10 µM

Task: Give its relative IC50 value. Item: CNc1nc(Nc2cn(C(C)(C)C#N)nc2C)ncc1C(F)(F)F
Output: > 1 µM

Task: Give its relative IC50 value. Item: COc1cc2ncnc(Oc3cccc(NC(=O)Nc4cc(C(C)(C)C(F)(F)F)on4)c3)c2cc1OC
Output: > 10 µM

Task: Give its relative IC50 value. Item: Cn1c(CCCC(=O)O)nc2cc(N(CCCl)CCCl)ccc21
Output: > 10 µM

Task: Give its relative IC50 value. Item: CN(C)C(=N)NC(=N)N
Output: > 100 µM

###

Give drug sensitivity score for every item shown.
- System: HS-PSS
- assay.summary: drug sensitivity score (DSS, CellTox-Green cytotoxicity, 72 h) (DSS (dimensionless)); higher = more cytotoxic; extreme values may be limits of the assay
Quick one: just the number, no unit, thanks!

Task: Which drug sensitivity score is reported with HS-PSS for this entry: CN1CCN(c2ccc3nc(-c4c(N)c5c(F)cccc5[nH]c4=O)[nH]c3c2)CC1 [Dovitinib] (max concentration tested 10000 nM) ?
Output: 0

Task: Which drug sensitivity score is reported with HS-PSS for this entry: CC(C)(C)Cn1c(N)nc2ccc(-c3[nH]c(C(C)(C)C)nc3-c3ccc(F)cc3)nc21 [Ralimetinib] (max concentration tested 10000 nM) ?
Output: 0

Task: Which drug sensitivity score is reported with HS-PSS for this entry: CO[C@H]1C(=O)[C@]2(C)[C@@H](OC)C[C@H]3OC[C@@]3(OC(C)=O)[C@H]2[C@H](OC(=O)c2ccccc2)[C@]2(O)C[C@H](OC(=O)[C@H](O)[C@@H](NC(=O)OC(C)(C)C)c3ccccc3)C(C)=C1C2(C)C [Cabazitaxel] (max concentration tested 1000 nM) ?
Output: 0.1

Task: Which drug sensitivity score is reported with HS-PSS for this entry: Nc1nc2[nH]cnc2c(=S)[nH]1 [Thioguanine] (max concentration tested 10000 nM) ?
Output: 0

Task: Which drug sensitivity score is reported with HS-PSS for this entry: CCN(CC)C(=S)SSC(=S)N(CC)CC [Disulfiram] (max concentration tested 100000 nM) ?
Output: 8.67

Task: Which drug sensitivity score is reported with HS-PSS for this entry: O=S(=O)(c1cccc2c(O)nccc12)N1CCCNCC1 [Hydroxyfasudil] (max concentration tested 37500 nM) ?
Output: 0

Task: Which drug sensitivity score is reported with HS-PSS for this entry: CCNC(=O)CCC/C=C\C[C@@H]1[C@@H](/C=C/[C@@H](O)CCc2ccccc2)[C@H](O)C[C@@H]1O [Bimatoprost] (max concentration tested 5500 nM) ?
Output: 0.89

###

- Test system: STS26T
- assay.summary: relative IC50 (inflection point of fitted dose-response curve, CellTox-Green cytotoxicity, 72 h; top asymptote may be below 50%); higher = less potent
measurement.name: relative IC50 (µM)
Quick note: give the figure in µM, leave out the unit.

Task: Give its relative IC50 value. Item: COC1=CC(c2cc3ccccc3[nH]2)=N/C1=C\c1[nH]c(C)cc1C
Output: 2.96

Task: Give its relative IC50 value. Item: O=C(CCCCCCC(=O)Nc1ccc([C@H]2O[C@@H](CSc3nc(-c4ccccc4)c(-c4ccccc4)o3)C[C@@H](c3ccc(CO)cc3)O2)cc1)NO
Output: 3.19

Task: Give its relative IC50 value. Item: CCCc1cc(C)[nH]c(=O)c1CNC(=O)c1cc(-c2ccnc(N3CCN(C)CC3)c2)cc2c1cnn2C(C)C
Output: 2.66

###

- Tested on: HS-PSS
- assay.summary: drug sensitivity score (DSS, CellTox-Green cytotoxicity, 72 h) (DSS (dimensionless)); higher = more cytotoxic; extreme values may be limits of the assay
Give drug sensitivity score for every item shown.
Quick one: just the number, no unit, thanks!

Task: Give its drug sensitivity score value. Item: Cn1c(Nc2ccc(C(F)(F)F)cc2)nc2cc(Oc3ccnc(-c4ncc(C(F)(F)F)[nH]4)c3)ccc21 [RAF265] (max concentration tested 1000 nM)
Output: 0

Task: Give its drug sensitivity score value. Item: CN[C@@H](C)C(=O)N[C@H](C(=O)N1CCC[C@H]1c1nc(C(=O)c2ccc(F)cc2)cs1)C1CCCCC1 [LCL161] (max concentration tested 25000 nM)
Output: 0.11

Task: Give its drug sensitivity score value. Item: CC(C)Oc1cc(Nc2nc(N[C@@H](C)c3ccc(F)cn3)ncc2Cl)n[nH]1 [AZ-23] (max concentration tested 1000 nM)
Output: 0

Task: Give its drug sensitivity score value. Item: CC(C)C(=O)Nc1ccc([N+](=O)[O-])c(C(F)(F)F)c1 [Flutamide] (max concentration tested 10000 nM)
Output: 0

Task: Give its drug sensitivity score value. Item: Cc1cc([C@@H](C)Nc2ccccc2C(=O)O)c2nc(N3CCOCC3)cc(=O)n2c1 [AZD-6482] (max concentration tested 2500 nM)
Output: 0

Task: Give its drug sensitivity score value. Item: C[C@@H]1C[C@H]2O[C@@H]2/C=C\C=C\C(=O)Cc2c(Cl)c(O)cc(O)c2C(=O)O1 [Radicicol] (max concentration tested 10000 nM)
Output: 4.33

Task: Give its drug sensitivity score value. Item: Cn1cnc2c(F)c(Nc3ccc(Br)cc3Cl)c(C(=O)NOCCO)cc21 [Selumetinib] (max concentration tested 10000 nM)
Output: 0

Task: Give its drug sensitivity score value. Item: O=C(c1ccc(C(=O)N2CCC(N3CCCC3)CC2)c(Nc2ccccc2)c1)N1CCC(N2CCCC2)CC1 [UNC1215] (max concentration tested 30000 nM)
Output: 0

Task: Give its drug sensitivity score value. Item: CN1CCN(CCOc2cc(OC3CCOCC3)c3c(Nc4c(Cl)ccc5c4OCO5)ncnc3c2)CC1 [Saracatinib] (max concentration tested 10000 nM)
Output: 1.13

Task: Give its drug sensitivity score value. Item: C[C@]1(c2nc3c(C(N)=O)cccc3[nH]2)CCCN1 [Veliparib] (max concentration tested 10000 nM)
Output: 0

Task: Give its drug sensitivity score value. Item: Cn1c(=O)c(F)c(Nc2ccc(I)cc2F)c2c(=O)n(C[C@@H](O)CO)cnc21 [TAK-733] (max concentration tested 1000 nM)
Output: 0

Task: Give its drug sensitivity score value. Item: CCN(CC)CCCC(C)Nc1c2ccc(Cl)cc2nc2ccc(OC)cc12 (stereo not drawn) [Mepacrine] (max concentration tested 50000 nM)
Output: 18

Task: Give its drug sensitivity score value. Item: C[C@@H](Oc1ccc2[nH]nc(/C=C/c3cnn(CCO)c3)c2c1)c1c(Cl)cncc1Cl (max concentration tested 1000 nM)
Output: 2.66

Task: Give its drug sensitivity score value. Item: N.N.[Cl][Pt][Cl] [Cisplatin] (max concentration tested 100000 nM)
Output: 9.13

Task: Give its drug sensitivity score value. Item: O=C(CCCCCCNC(=O)c1cnc(N(c2ccccc2)c2ccccc2)nc1)NO [Rocilinostat] (max concentration tested 10000 nM)
Output: 0.39

Task: Give its drug sensitivity score value. Item: C=CC(=O)N1CCC[C@@H](n2nc(-c3ccc(Oc4ccccc4)cc3)c3c(N)ncnc32)C1 [Ibrutinib] (max concentration tested 1000 nM)
Output: 0

Task: Give its drug sensitivity score value. Item: Nc1ncn([C@@H]2O[C@H](CO)[C@@H](O)[C@H]2O)c(=O)n1 [Azacitidine] (max concentration tested 10000 nM)
Output: 0

Task: Give its drug sensitivity score value. Item: O=C(O)C(=O)O.[NH-][C@@H]1CCCC[C@H]1[NH-].[Pt+2] [Oxaliplatin] (max concentration tested 100000 nM)
Output: 3.02

Task: Give its drug sensitivity score value. Item: COc1ccccc1S(=O)(=O)Nc1ccc2c(c1)CN(C)C(=O)N2 [PFI-1] (max concentration tested 10000 nM)
Output: 0

Task: Give its drug sensitivity score value. Item: NCC(=O)Nc1ccc(-n2nc(C(F)(F)F)cc2-c2ccc3c(ccc4ccccc43)c2)cc1 (max concentration tested 25000 nM)
Output: 7.95

Task: Give its drug sensitivity score value. Item: C=CCNC1=C2C[C@@H](C)C[C@H](OC)[C@H](O)[C@@H](C)/C=C(\C)[C@H](OC(N)=O)[C@@H](OC)/C=C\C=C(/C)C(=O)NC(=CC1=O)C2=O [Tanespimycin] (max concentration tested 10000 nM)
Output: 5.08

Task: Give its drug sensitivity score value. Item: O=C(NC[C@H](O)CO)c1ccncc1Nc1ccc(I)cc1F [Pimasertib] (max concentration tested 10000 nM)
Output: 0

Task: Give its drug sensitivity score value. Item: CC(=O)c1c(C)c2cnc(Nc3ccc(N4CCNCC4)cn3)nc2n(C2CCCC2)c1=O [Palbociclib] (max concentration tested 10000 nM)
Output: 0

###

- Test system: STS26T
- assay.summary: relative IC50 (inflection point of fitted dose-response curve, CellTox-Green cytotoxicity, 72 h; top asymptote may be below 50%); higher = less potent
Give relative IC50 for every item shown.

Task: Give its relative IC50 value. Item: O=C(Nc1cccnc1)N1CCC(Cc2cccc(Oc3ccc(C(F)(F)F)cn3)c2)CC1 [PF-3845]
Output: > 10 µM

Task: Give its relative IC50 value. Item: Cc1sc2c(c1C)C(c1ccc(Cl)cc1)=N[C@H](CC(=O)OC(C)(C)C)c1nnc(C)n1-2 [(-)JQ1]
Output: > 10 µM

Task: Give its relative IC50 value. Item: COc1cc2nccc(Oc3ccc(NC(=O)C4(C(=O)Nc5ccc(F)cc5)CC4)cc3)c2cc1OC [Cabozantinib]
Output: > 1 µM

Task: Give its relative IC50 value. Item: CC(C)NC[C@@H](C(=O)N1CCN(c2ncnc3c2[C@H](C)C[C@H]3O)CC1)c1ccc(Cl)cc1 [GDC-0068]
Output: > 10 µM

Task: Give its relative IC50 value. Item: CC(C)(C)NC(=O)[C@H]1CC[C@H]2[C@@H]3CC[C@H]4NC(=O)C=C[C@]4(C)[C@H]3CC[C@]12C [Finasteride]
Output: > 10 µM

Task: Give its relative IC50 value. Item: CCn1c(C(=O)N(C2CC2)C2CC2)cc2c3c(ncn3C)c(Nc3cc(C)n(C)n3)nc21
Output: > 10 µM

Task: Give its relative IC50 value. Item: C[C@]12CC[C@@H]3c4ccc(O)cc4C[C@@H](CCCCCCCCC[S+]([O-])CCCC(F)(F)C(F)(F)F)[C@H]3[C@@H]1CC[C@@H]2O (stereo partly drawn) [Fulvestrant]
Output: > 1 µM

Task: Give its relative IC50 value. Item: CN(N=O)C(=O)N[C@@H]1[C@@H](O)[C@H](O)[C@@H](CO)O[C@@H]1O [Streptozocin]
Output: > 10 µM
